Parameter growth: see the listing below.
System: NCI/ADR-RES ovarian
Experiment: NCI-60 one-dose screen, 48 h (100 = growth as untreated, 0 = no growth, -100 = all killed)
Conditions: 10 µM unless noted
Compounds without any hit were thinned out: in the full panel of roughly 83,000, 20% have a hit.

molecule | target | growth / %
COc1cc(C(O)C2C(=O)OCC2C2(c3ccc4c(c3)OCO4)SCCCS2)cc(OC)c1OC (stereo not given) | NCI/ADR-RES ovarian | 89.4
OC1COC(OCc2ccccc2)C(O)C1O (stereo not given) | NCI/ADR-RES ovarian | 103
OCC1OC(O)C(O)C(O)C1O (stereo not given) | NCI/ADR-RES ovarian | 101
CCOC(=O)c1c(C)cc(=O)oc1C | NCI/ADR-RES ovarian | 104
O=CN1CCCCC1 | NCI/ADR-RES ovarian | 103
